Literature survey of pIC50 (system: MMP-8 (Homo sapiens, UniProt P22894)).
pIC50: −log10 of the molar value.
parameter-measured: pIC50

O=C(O)[C@H]1[C@H](Cn2nnc3ccc(C(F)(F)F)cc3c2=O)CC[C@@H]1C(=O)c1ccc(OCc2ccccc2)cc1 (racemic)	8.49
CC(=O)N1CCC(CC(CS(=O)(=O)c2ccc(OCc3cc(C)nc4ccccc34)cc2)N(O)C=O)CC1 (stereo not shown)	5.01
Cc1cc(COc2ccc(S(=O)(=O)CC(C3CCN(C(=O)OC(C)(C)C)CC3)N(O)C=O)cc2)c2ccccc2n1 (stereo not shown)	5.10
Cc1cccn(CC2(c3ccc(Oc4ccccc4)cc3)NC(=O)NC2=O)c1=O (stereo not shown)	4.85

a = CCCCCOc1ccc(C(=O)[C@H]2CC[C@@H](Cn3nnc4ccc(C)cc4c3=O)[C@@H]2C(=O)O)cc1 (racemic)
b = O=C(CC(CCn1nnc2ccccc2c1=O)C(=O)O)c1coc2cc(OCC3CCCC3)ccc12 (single isomer, unassigned; (+))
Task item: Which shows the larger pIC50 value: a or b ? In your reply, give the label of the chosen option.
Reply: a
(a: 7.96, b: 6.36)
